- TARGET_OR_TEST_SYSTEM: PARP2 (Homo sapiens);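 note: PARP2 enzyme ELISA on histone-coated plates, Strep-HRP detection with chemiluminescence read-out, 10 min compound preincubation with enzyme, inhibition scaled between Max and Min signal controls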
- Sequence (Q9UGN5 whole entry): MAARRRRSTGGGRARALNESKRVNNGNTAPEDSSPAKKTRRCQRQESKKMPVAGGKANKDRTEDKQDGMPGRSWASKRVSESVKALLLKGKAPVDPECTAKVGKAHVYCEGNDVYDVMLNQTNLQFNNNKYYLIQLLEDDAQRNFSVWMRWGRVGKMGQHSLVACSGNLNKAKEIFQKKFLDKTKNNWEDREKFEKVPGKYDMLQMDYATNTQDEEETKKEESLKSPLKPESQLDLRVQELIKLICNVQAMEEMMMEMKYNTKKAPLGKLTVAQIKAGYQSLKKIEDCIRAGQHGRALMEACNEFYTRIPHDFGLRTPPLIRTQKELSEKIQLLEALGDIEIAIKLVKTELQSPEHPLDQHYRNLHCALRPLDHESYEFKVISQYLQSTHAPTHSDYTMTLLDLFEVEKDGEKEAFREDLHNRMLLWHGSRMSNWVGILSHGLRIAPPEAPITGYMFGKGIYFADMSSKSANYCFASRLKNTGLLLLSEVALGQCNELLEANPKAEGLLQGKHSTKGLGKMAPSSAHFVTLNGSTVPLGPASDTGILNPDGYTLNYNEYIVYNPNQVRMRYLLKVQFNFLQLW
- ASSAY_REMARKS: biochemical
VALUE_KIND: IC50 (µM)

Use these answered entries as a reference point.
{"COMPOUND": "CNC(=O)c1ccc(N2CCN(Cc3cc(-c4ccccc4F)c4nc(C)c(=O)[nH]c4c3)CC2)c(F)n1 [Example 8]", "IC50 (µM)": 2.69}
{"COMPOUND": "CNC(=O)c1ccc(N2CCN(Cc3cc(-c4ccccc4)c4nc(C)c(=O)[nH]c4c3)CC2)c(F)n1 [Example 2]", "IC50 (µM)": 3.13}
{"COMPOUND": "Cc1nc2c(OC(F)F)cc(CN3CCN(c4ccc(C(=O)N[C@H]5C[C@H]5F)nc4F)CC3)cc2[nH]c1=O [Example 57]", "IC50 (µM)": 0.0795}
{"COMPOUND": "CC#Cc1cc(CN2CCN3c4ccc(C(=O)NC)nc4COC[C@H]3C2)cc2[nH]c(=O)c(C)nc12 [Example 63]", "IC50 (µM)": 1.28}
{"COMPOUND": "CNC(=O)c1ccc(N2CCN(Cc3cc(OC(F)(F)F)c4nc(C)c(=O)[nH]c4c3)CC2)c(C)n1 [Example 64]", "IC50 (µM)": 0.169}

I. CC#Cc1cc(CN2CCN(c3ccc(C(=O)NC4CC4)nc3F)CC2)cc2[nH]c(=O)c(C)nc12 [Example 35]
II. CNC(=O)c1ccc(N2CCN(Cc3cc(Oc4ccccc4F)c4nc(C)c(=O)[nH]c4c3)CC2)c(F)n1 [Example 27]
III. CNC(=O)c1ccc2c(n1)COC[C@H]1CN(Cc3cc(OC(F)F)c4nc(C)c(=O)[nH]c4c3)CCN21 [Example 59]
Give the ascending ranking of the items by reported IC50. Provide the ranking by listing each label in its place in the requested order.
I, II, III

I. CNC(=O)c1ccc(N2CCN(Cc3cc(-c4cccc(OC)c4)c4nc(C)c(=O)[nH]c4c3)CC2)c(F)n1 [Example 73]
II. CNC(=O)c1ccc(N2CCN(Cc3cc(OC4CCCCC4)c4nc(C)c(=O)[nH]c4c3)CC2)c(F)n1 [Example 72]
Please choose the item with the lower IC50 value from this pair: I and II Answer with the label corresponding to your selection.
II
